target: phosphorylated EGFR (pEGFR) (Homo sapiens, UniProt P00533); construct: performed to measure phosphorylated EGFR levels using A431 cells (10% FBS); endogenous in cells; assay: Detection of phosphorylated EGFR (pEGFR) by AlphaLISA in EGF-stimulated A431 cells; conditions: A431 cells (10% FBS), 4 hours incubation, EGF 30 ng/mL for 10 minutes
Sequence (P00533 25-1210): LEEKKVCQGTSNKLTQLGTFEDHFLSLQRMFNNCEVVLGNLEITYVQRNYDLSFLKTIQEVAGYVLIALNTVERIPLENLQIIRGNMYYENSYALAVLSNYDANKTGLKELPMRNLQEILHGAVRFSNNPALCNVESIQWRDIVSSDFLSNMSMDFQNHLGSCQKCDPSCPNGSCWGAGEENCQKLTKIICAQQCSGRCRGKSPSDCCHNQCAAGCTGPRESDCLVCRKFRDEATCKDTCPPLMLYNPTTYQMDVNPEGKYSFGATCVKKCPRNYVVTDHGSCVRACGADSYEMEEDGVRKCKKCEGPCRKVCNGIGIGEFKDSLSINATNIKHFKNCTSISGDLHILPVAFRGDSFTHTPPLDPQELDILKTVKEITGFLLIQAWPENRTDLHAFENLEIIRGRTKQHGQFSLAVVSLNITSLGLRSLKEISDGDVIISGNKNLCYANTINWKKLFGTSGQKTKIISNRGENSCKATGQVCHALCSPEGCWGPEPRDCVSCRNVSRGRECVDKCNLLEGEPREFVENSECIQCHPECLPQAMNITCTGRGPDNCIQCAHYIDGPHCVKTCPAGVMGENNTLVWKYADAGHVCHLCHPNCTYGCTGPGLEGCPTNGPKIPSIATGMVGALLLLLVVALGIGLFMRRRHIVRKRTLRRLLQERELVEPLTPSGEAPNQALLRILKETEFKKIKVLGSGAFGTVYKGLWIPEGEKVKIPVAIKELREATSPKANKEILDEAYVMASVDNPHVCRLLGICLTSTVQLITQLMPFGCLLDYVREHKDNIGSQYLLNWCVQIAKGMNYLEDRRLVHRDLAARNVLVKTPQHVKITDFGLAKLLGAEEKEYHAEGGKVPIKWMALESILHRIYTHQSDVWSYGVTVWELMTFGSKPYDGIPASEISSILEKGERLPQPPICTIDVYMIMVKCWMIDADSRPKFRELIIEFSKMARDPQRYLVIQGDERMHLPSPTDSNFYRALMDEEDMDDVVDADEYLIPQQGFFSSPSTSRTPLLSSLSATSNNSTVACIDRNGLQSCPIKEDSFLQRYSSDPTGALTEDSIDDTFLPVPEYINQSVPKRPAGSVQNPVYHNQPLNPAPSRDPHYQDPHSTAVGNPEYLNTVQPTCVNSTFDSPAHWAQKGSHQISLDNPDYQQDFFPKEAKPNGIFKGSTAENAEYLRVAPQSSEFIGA
Reported property: IC50

// known answers, use as guide
| Molecule | Reported property | Recorded measurement |
| --- | --- | --- |
| Cc1cc(Nc2ncnc3cc4c(nc23)N2CCN(C)C[C@H]2CO4)c(F)cc1Oc1ccn2ncnc2c1 [Compound 75] | IC50 | > 10000 nM |
| Cc1cc(Nc2ncnc3ccc4c(c23)OC[C@@H]2CN(C(=O)/C=C/C3CN(C)C3)CCN42)ccc1Oc1ccn2ncnc2c1 [Compound 114, formic acid] | IC50 | > 10000 nM |
| C=CC(=O)N1CCN2c3cc4c(Nc5ccc(Oc6ccc7c(c6)ncn7C)c(C)c5)ncnc4cc3OC[C@H]2C1 [Compound 7] | IC50 | 1780 nM |
| Cc1cc(Nc2ncnc3cc4c(cc23)N2CCN(C)C[C@H]2CO4)ccc1Oc1ccc2c(c1)ncn2C [Compound 62] | IC50 | > 10000 nM |

Give its IC50 value. Item: COC(=O)N1CCN2c3ccc4ncnc(Nc5ccc(Oc6ccn7ncnc7c6)c(C)c5)c4c3OC[C@H]2C1 [Compound 110]
> 10000 nM

# lookup: IC50 of Cc1cc(Nc2ncnc3ccc4c(c23)OC[C@@H]2CN4CCN2C(=O)/C=C/CN(C)C)ccc1Oc1ccn2ncnc2c1 [Compound 26]
> 10000 nM

Can you share its IC50? I mean this molecule: CN(C)C/C=C/C(=O)N1CCN2C[C@@H]1COc1c2ccc2ncnc(Nc3ccc(Oc4ccn5ncnc5c4)cc3)c12 [Compound 77]
460 nM

What does the record list as IC50 for Cc1cc(Nc2ncnc3cc4c(cc23)N2CCNC[C@@H]2CO4)ccc1Oc1ccc2c(c1)ncn2C [Compound 63] ?
> 10000 nM

Could you tell me which IC50 is on file for Cc1c(Oc2ccn3ncnc3c2)ccc(Nc2ncnc3ccc4c(c23)OC[C@H]2COCCN42)c1F [Compound 99] ?
> 10000 nM

Quick one: IC50 of Cc1cc(Nc2ncnc3cc4c(cc23)N2CCN(C(=O)/C=C/CN(C)C)C[C@H]2CO4)ccc1Oc1ccc2c(c1)ncn2C [Compound 11] ?
1180 nM

Suppose we examine the molecule C=CC(=O)N1CCN2c3nc4c(Nc5ccc(Oc6ccn7ncnc7c6)c(C)c5)ncnc4cc3OC[C@H]2C1 [Compound 2] ; what IC50 value has been reported?
421 nM

Item Cc1cc(Nc2ncnc3cnc4c(c23)OC[C@@H]2CN(C(=O)/C=C/CN(C)C)CCN42)ccc1Oc1ccn2ncnc2c1 [Compound 112] has what recorded IC50?
1170 nM

Item under review: Cc1cc(Nc2ncnc3cnc4c(c23)OC[C@H]2CN(C)CCN42)ccc1Oc1cc2ncn(C)c2cn1 [Compound 128] . Reported IC50?
> 10000 nM

IC50 for Cc1cc(Nc2ncnc3ccc4c(c23)OC[C@@H]2CN4CCO2)ccc1Oc1ccn2ncnc2c1 [Compound 72] ?
> 10000 nM

====

target: phosphorylated ERBB2 (pERBB2) (Homo sapiens); construct: endogenous in cells; assay: Detection of phosphorylated ERBB2 (pERBB2) by ELISA in BT-474 cells; settings: four hour incubation
Sequence (P04626 23-1255): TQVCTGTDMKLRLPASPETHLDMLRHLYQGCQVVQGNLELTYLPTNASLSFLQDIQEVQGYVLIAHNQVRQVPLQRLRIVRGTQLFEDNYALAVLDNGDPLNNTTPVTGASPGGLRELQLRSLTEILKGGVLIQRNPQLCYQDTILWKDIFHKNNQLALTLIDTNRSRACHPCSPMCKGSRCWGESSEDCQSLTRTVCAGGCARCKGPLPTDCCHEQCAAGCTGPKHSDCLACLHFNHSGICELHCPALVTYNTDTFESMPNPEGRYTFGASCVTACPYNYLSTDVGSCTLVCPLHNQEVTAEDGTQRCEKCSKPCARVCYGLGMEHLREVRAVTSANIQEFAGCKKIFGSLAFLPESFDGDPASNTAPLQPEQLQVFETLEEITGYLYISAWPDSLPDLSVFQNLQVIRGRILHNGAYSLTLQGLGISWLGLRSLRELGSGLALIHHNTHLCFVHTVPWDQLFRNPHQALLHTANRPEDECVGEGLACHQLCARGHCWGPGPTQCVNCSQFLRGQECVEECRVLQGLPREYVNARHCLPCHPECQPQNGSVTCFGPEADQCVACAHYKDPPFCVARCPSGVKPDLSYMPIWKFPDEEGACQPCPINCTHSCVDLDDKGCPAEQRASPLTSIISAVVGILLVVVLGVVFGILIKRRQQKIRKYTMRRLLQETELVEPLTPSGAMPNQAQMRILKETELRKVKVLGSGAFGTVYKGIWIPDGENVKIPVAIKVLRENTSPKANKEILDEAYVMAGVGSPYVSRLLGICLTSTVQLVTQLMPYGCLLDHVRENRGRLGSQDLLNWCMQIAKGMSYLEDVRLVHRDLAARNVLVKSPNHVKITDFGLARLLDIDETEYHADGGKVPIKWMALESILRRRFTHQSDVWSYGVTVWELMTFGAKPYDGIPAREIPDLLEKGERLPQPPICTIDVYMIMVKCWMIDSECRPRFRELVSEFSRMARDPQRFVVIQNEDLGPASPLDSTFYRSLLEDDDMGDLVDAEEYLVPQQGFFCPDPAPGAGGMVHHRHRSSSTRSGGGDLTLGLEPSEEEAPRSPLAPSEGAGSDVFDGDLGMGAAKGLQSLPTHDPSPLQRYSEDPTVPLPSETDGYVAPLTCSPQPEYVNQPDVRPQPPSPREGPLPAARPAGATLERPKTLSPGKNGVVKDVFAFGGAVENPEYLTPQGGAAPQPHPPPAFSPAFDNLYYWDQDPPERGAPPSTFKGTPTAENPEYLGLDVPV
Reported property: IC50 (nM)

# annotated cases, reported IC50 shown
| Molecule smiles | Experimental target | Unit of measurement | IC50 |
| --- | --- | --- | --- |
| Cc1cc(Nc2ncnc3cc4c(cc23)N2CCN(C)C[C@H]2CO4)ccc1Oc1ccn2ncnc2c1 | phosphorylated ERBB2 (pERBB2) (Homo sapiens) | nM | 21.9 |
| C=CC(=O)N1CCN2c3ccc4ncnc(Nc5ccc(Oc6ccn7ncnc7c6)c(C)c5)c4c3OC[C@@H]2C1 | phosphorylated ERBB2 (pERBB2) (Homo sapiens) | nM | 7.89 |
| Cc1cc(Nc2ncnc3cc4c(nc23)N2CCN(C)C[C@@H]2CO4)ccc1Oc1ccn2ncnc2c1 | phosphorylated ERBB2 (pERBB2) (Homo sapiens) | nM | 234 |

[A] Cc1cc(Nc2ncnc3ccc4c(c23)OC[C@H]2CN4CCN2C(=O)/C=C/[C@H](C)N(C)C)ccc1Oc1ccn2ncnc2c1
[B] Cc1cc(Nc2ncnc3ccc4c(c23)OC[C@H]2CCCN42)ccc1Oc1ccn2ncnc2c1
Which record would sort first by descending IC50, A or B ? Give the chosen item's label as your response.
A

====

target: phosphorylated ERBB2 (pERBB2) (Homo sapiens); construct: endogenous in cells; test: Detection of phosphorylated ERBB2 (pERBB2) by ELISA in BT-474 cells; conditions: four hour incubation
Reported property: IC50 (nM)

| Molecule smiles | Unit of measurement | IC50 |
| --- | --- | --- |
| C=CC(=O)N1CCN2C[C@@H]1COc1c2ccc2ncnc(Nc3ccc(Oc4ccc5c(c4)ncn5C)c(C)c3)c12 | nM | 30.7 |
| Cc1cc(Nc2ncnc3ccc4c(c23)OC[C@H]2CN(C(=O)/C=C/CN(C)C)CCN42)ccc1Oc1ccc2c(c1)ncn2C | nM | 22.8 |

[A] Cc1cc(Nc2ncnc3ccc4c(c23)OC[C@@H]2CN4CCO2)ccc1Oc1ccn2ncnc2c1
[B] CN(C)C/C=C/C(=O)N1CCN2c3ccc4ncnc(Nc5cc(F)c(Oc6ccn7ncnc7c6)cc5F)c4c3OC[C@H]2C1
For the pair A and B , which entry has the numerically smaller recorded IC50? Could you answer with the label of the item you picked?
B

====

target: phosphorylated ERBB2 (pERBB2) (Homo sapiens); construct: endogenous in cells; assay: Detection of phosphorylated ERBB2 (pERBB2) by ELISA in BT-474 cells; conditions: four hour incubation
pIC50: −log10 of the molar value.
Reported property: pIC50

Study these solved cases before continuing.
| Molecule | pIC50 |
| --- | --- |
| Cc1cc(Nc2ncnc3cc4c(nc23)N2CCNC[C@@H]2CO4)ccc1Oc1ccn2ncnc2c1 [Compound 35] | 6.90 |
| Cc1cc(Nc2ncnc3cnc4c(c23)OC[C@H]2COCCN42)ccc1Oc1ccn2ncnc2c1 [Compound 106] | 7.43 |
| Cc1cc(Nc2ncnc3ccc4c(c23)OC[C@H]2CNCCN42)ccc1Oc1ccn2ncnc2c1 [Compound 41, diformic acid] | 7.24 |
| CC#CC(=O)N1CCN2c3cc4c(Nc5ccc(Oc6ccn7ncnc7c6)c(C)c5)ncnc4cc3OC[C@@H]2C1 [Compound 13] | 7.89 |

[P] Cc1cc(Nc2ncnc3cc4c(nc23)N2CCC[C@H]2CO4)ccc1Oc1ccn2ncnc2c1 [Compound 69]
[Q] Cc1cc(Nc2ncnc3ccc4c(c23)OC[C@H]2CN4CCN2C(=O)/C=C/CN(C)C)ccc1Oc1ccc2c(c1)ncn2C [Compound 31]
Could you kindly indicate whether P or Q has the higher pIC50 value? Let me know the label of the one you choose.
Q
(Q: 7.70, P: 7.00)

[I] CC#CC(=O)N1CCN2c3nc4c(Nc5ccc(Oc6ccn7ncnc7c6)c(C)c5)ncnc4cc3OC[C@@H]2C1 [Compound 32]
[II] Cc1c(Oc2ccn3ncnc3c2)ccc(Nc2ncnc3ccc4c(c23)OC[C@H]2COCCN42)c1F [Compound 99]
Look at I and II . Which one has the lower recorded pIC50 number? Pick one; state its label.
II
(II: 6.68, I: 7.29)

====

target: phosphorylated EGFR (pEGFR) (Homo sapiens); construct: performed to measure phosphorylated EGFR levels using A431 cells (10% FBS); endogenous in cells; assay: Detection of phosphorylated EGFR (pEGFR) by AlphaLISA in EGF-stimulated A431 cells; conditions: A431 cells (10% FBS), 4 hours incubation, EGF 30 ng/mL for 10 minutes
pIC50: −log10 of the molar value.
Reported property: pIC50

[A] Cc1cc(Nc2ncnc3cnc4c(c23)OC[C@H]2CN4CCN2C(=O)/C=C/CN(C)C)ccc1Oc1ccn2ncnc2c1
[B] Cc1cc(Nc2ncnc3cnc4c(c23)OC[C@H]2CN(C(=O)/C=C/CN(C)C)CCN42)ccc1Oc1ccn2ncnc2c1
Of A and B , which carries the smaller reported pIC50 figure? Field: selected label. Fill in the label of the entry you choose.
B
(B: 6.23, A: 6.70)

====

Biological target: phosphorylated EGFR (pEGFR) (Homo sapiens, UniProt P00533)
Construct: performed to measure phosphorylated EGFR levels using A431 cells (10% FBS); endogenous in cells
Test: Detection of phosphorylated EGFR (pEGFR) by AlphaLISA in EGF-stimulated A431 cells
Conditions: A431 cells (10% FBS), 4 hours incubation, EGF 30 ng/mL for 10 minutes
Procedure: Enzyme-linked immunosorbent assays (ELISA) were performed to measure phosphorylated EGFR levels using A431 cells (10% FBS). A431 (1.0*10^4 cells/40 μl/well) cells were seeded in 384 well. […] Acceptor mix (PerkinElmer, cat #ALSU-PEGFR-A50K) was prepared just before use and 5 μL was dispensed to all the wells, followed by a 1.5-2 h incubation at room temperature in dark. […] Plates were read on the Envision (PerkinElmer) using standard AlphaLISA settings. […]
Reported IC50 values follow for various molecules

Give the measured IC50 of Cc1cc(Nc2ncnc3ccc4c(c23)OC[C@H]2CN(C)CCN42)ccc1Oc1ccc2c(c1)ncn2C [Compound 46] .
> 10 µM

Would you kindly share the measured IC50 for C=CC(=O)N1CCN2C[C@@H]1COc1c2ccc2ncnc(Nc3ccc(Oc4ccc5c(c4)ncn5C)c(C)c3)c12 [Compound 29] ?
2.93 µM

Need IC50, item Cc1cc(Nc2ncnc3cc4c(nc23)N2CCC[C@H]2CO4)ccc1Oc1ccn2ncnc2c1 [Compound 69]
> 10 µM

Which IC50 is listed for C=CC(=O)N1CCN2c3nc4c(Nc5ccc(Oc6ccc7c(c6)ncn7C)c(C)c5)ncnc4cc3OC[C@H]2C1 [Compound 8] ?
0.643 µM

Recorded IC50 of Cc1cc(Nc2ncnc3ccc4c(c23)OC[C@@H]2CN(C)CCN42)ccc1Oc1ccc2c(c1)ncn2C [Compound 48] , please.
> 10 µM

Consider the molecule Cc1cc(Nc2ncnc3ccc4c(c23)OC[C@H]2CN4CCN2C(=O)/C=C/[C@H](C)N(C)C)c(F)cc1Oc1ccn2ncnc2c1 [Compound 91, triformate] and give its measured IC50.
> 10 µM

// returns reported IC50 for input Cc1cc(Nc2ncnc3cc4c(cc23)N2CCNC[C@H]2CO4)ccc1Oc1ccc2c(c1)ncn2C [Compound 61]
> 10 µM

Where these numbers come from: patent US20260078135A1
